TEST DETAILS: yeast display, Sf9 membrane polyspecificity reagent, FACS + sequencing; frameworks hold sequencing errors
MEASUREMENT NAME: polyreactivity (PSR sort gate)

INSERT INTO measurements (sequence_data, result) VALUES
  ('QVQLVESGGGLVQAGGSLRLSCAASGSTFYAYAMGWYRQAPGKERELVARIRWRGGRTYYADSVKGRFTISRDNAKNTVYLRMNSLKPEDTAVYYCNRGYYSYYGRYYYWGQGTQVTVSS', 'high polyreactivity'),
  ('QVQLVESGGGLVQAGGSLRLSCAASGSIFIRNAKGWYRQAPGKERELVAAISTIGGRTYYADSVKGRFTISRDNAKNTVYLQMNSLKPEDTAVYYCAAEQGTPSTNWYDYWGQGTQVTVSS', 'low polyreactivity'),
  ('QGQLGESGGGLVQAGGSLRLTCAASGNIFFVYAMGWYRQAPGNEWELVAAITWGGGSTNYADSVKGRFTISRDNAKKTVYLQMNSLKPEDTAVYYCATDNRYVVDSYYWGQGTQVTVSS', 'high polyreactivity'),
  ('QVQHVESAAGLVQAGGSLRLSCDPSGIIFGRYAMGLYRHAPGKEREFVAAITWSGGSTYYADSVKGRFTISRDNAKNTVYLQMNSLKPEDTAVYYCAADTWYRYDYWGQGTQVTVSS', 'low polyreactivity');

Now consider a different sequence.
Can you share its polyreactivity (PSR sort gate)? I mean this sequence: QVQIVESGGGLVQAGGSLRLSCAASGSIFSYNVMGWYRQAPGKERELVAAISWNDGSTYYADSVKGRFTISRDNAKNTVYLQMNSLKPEDTAVYYCAAEYGRRWHNELDYWGQGTQVTLSS low polyreactivity

---

TEST DETAILS: yeast display, Sf9 membrane polyspecificity reagent, FACS + sequencing; frameworks hold sequencing errors
MEASUREMENT NAME: polyreactivity (PSR sort gate)

Worked examples, 10 sequences total:
INSERT INTO results (sequence_data, measurement_name, result) VALUES
  ('QVQLVESGGGLVQAGGSLRLSCAASGSTFFGYAMGWYRQAPGKERELVAAIRYNGGRTYYADSVKGRFTISRDNAKNTVYLQMNSLKPEDTAVYYCAAYISYSRTYYYWGQGTQVTVSS', 'polyreactivity (PSR sort gate)', 'low polyreactivity'),
  ('QLQLVESGGGFVQAGGSLRLSCAASGSTFQIYTMGWYRQAPGKERELVAAITNGGGSTYYADSVKGRFTISRDKANNTVYLQMNSLKPEDTAVYYCAAEQRYPLIILYDYWGQGTQVTVSS', 'polyreactivity (PSR sort gate)', 'low polyreactivity'),
  ('QVQLVESGRGLVQAGGSLRLSCAPSGSTIQDYAMGWYRQAPGKERELVAAISWRSDITYYAESVKGRFTISRDNAKNTVYLQMNSLKPEDTAVYYCAADNSYHWLDREFDYEFDYWGQGTQVTVSS', 'polyreactivity (PSR sort gate)', 'high polyreactivity'),
  ('QVQLVESGGGLVQAGGSLRLSCAASGSTFYAYAMGWYRPAPGKERELVAAISSDGTNYADSVKGRFTISRDNAKNTVYLQMNSLKPEDTAVYYCAADLLLYSSQDNDYWGQGTQVTVSS', 'polyreactivity (PSR sort gate)', 'low polyreactivity'),
  ('QVQLVESGGCLVQAGGSLRLRCAASGFMFGSYAMGWYRQAPGKERELVAAISRRGSSTSYADSVKGRFTISRDNAKNTVYLQMNSLKPEDTAVYFCAPPYLKKWGYYFDGNYWGQGTQVTVSS', 'polyreactivity (PSR sort gate)', 'high polyreactivity'),
  ('QVQLVESGGRLVQAGGSLRLSCAASGLTFDPNDMGWYRQAPGKERELVAAISWSSGSTYYADSVKGRFTISRDNAKNTVYLQMNSLKPEDTAVYYCAAYFTLLFGTELYDYDYWGQGTQVTVSS', 'polyreactivity (PSR sort gate)', 'high polyreactivity'),
  ('QVQLVESGGGLVQAGGSLRLSCAASGSTFRTYAMGWYRQAPGKERELVAAIRSRGGSTYYADSVKGRFTISRDNAKNTVYLLMNSLKPEDTAVYYCNAVPRWSYVDEDSWGQGTQVTVSS', 'polyreactivity (PSR sort gate)', 'high polyreactivity'),
  ('QVQLVESGGGKVQAGGSLRLSCAATGRNFGVYDMGSYRHSPGKERELVAAITARGGSTYYADSVKGRFTISRDNAKNTVYLQMNSLKPEDTAVYYCAASAGSAGHSGGYWGQGTQVTVSS', 'polyreactivity (PSR sort gate)', 'high polyreactivity'),
  ('QVQLVESGGGLVQAGGSLRLSCAASGLIFRHYAMGWYRQAPGKERELVAAIDYSGGSTYYADSVKGRFTISRDNAKNSVYLQMNSLKPEDTAVYYCAADYFWLYYSEYGYWGQGTQVNVSS', 'polyreactivity (PSR sort gate)', 'low polyreactivity'),
  ('QVQLVESGGGLVQAGGSLRLSCAASGFIFSKYAMGWYRQAPGKERELVAAISWNGGSTYYADSVKGRFTISRDNAKNTVYLQMNSLKPEDTAVYYCNTGYGRIRRPGALDYWGQGTQVTVSS', 'polyreactivity (PSR sort gate)', 'high polyreactivity');

Can you share its polyreactivity (PSR sort gate)? I mean this sequence: QVQLVESGGGLVQAGGSLRLSCASSGSIFSYNAMGWYRQAPGKERELVAAITRSGGSTYYADSVKGRFTISRDNAKNTVYLQMNSLKPEDTAVYYCAVYLPYSQRYVHYYYWGQGTQVTVSS high polyreactivity
